These data points were gathered from paper PMC5216056.

Biological target: UniProt:P47936
Sequence (P47936 whole entry): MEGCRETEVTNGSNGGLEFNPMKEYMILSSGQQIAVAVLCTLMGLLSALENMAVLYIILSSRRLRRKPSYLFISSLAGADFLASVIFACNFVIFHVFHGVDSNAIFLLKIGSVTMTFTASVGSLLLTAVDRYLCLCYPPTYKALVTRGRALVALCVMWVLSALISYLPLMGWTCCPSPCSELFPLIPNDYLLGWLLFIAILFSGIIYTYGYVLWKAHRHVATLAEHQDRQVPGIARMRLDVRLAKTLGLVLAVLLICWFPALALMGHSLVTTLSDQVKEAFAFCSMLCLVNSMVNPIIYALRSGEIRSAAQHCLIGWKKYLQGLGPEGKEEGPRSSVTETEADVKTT
Experiment: Operational analysis of biased signalling
Settings: reference CP55940
measure-name: ΔLogR GTPγS
Please reply with the value in numeric form only.

CCCC(C)(C)c1ccc2c(c1)OC(C)(C)[C@@H]1CC=C(C)C[C@@H]21 [JWH133] | -0.75
CCCCCCC(C)(C)c1cc(OC)c([C@@H]2C=C(CO)[C@@H]3C[C@H]2C3(C)C)c(OC)c1 [HU308] | -1.04
CCCCCCC(C)(C)c1ccc([C@@H]2C[C@H](O)CC[C@H]2CCCO)c(O)c1 [CP55940] | 0

Then there is this compound:
Suppose we examine the compound CCCCCCC(C)(C)c1cc(OC)c(C2=C[C@H]3CC[C@]2(CO)C3(C)C)c(OC)c1 [HU910] ; what ΔLogR GTPγS value has been reported?
-0.67
